Exercise: state measured koff for each of the binders provided.
tested-target: T1, hu-CD74 antigen (R&D SYSTEMS catalog #3590-CD-050) (human, UniProt P04233-2 73-232, limits assumed)
T1 construct: Bought antigen; also called rhCD74; human CD74
T1 sequence (looked up): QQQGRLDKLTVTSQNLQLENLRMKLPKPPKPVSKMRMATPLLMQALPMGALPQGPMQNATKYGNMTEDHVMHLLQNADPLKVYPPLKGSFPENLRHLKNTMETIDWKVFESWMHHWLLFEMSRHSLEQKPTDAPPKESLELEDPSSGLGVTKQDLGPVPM
assay-details: SPR (Biacore T200), IgG captured on anti-human Fc, rhCD74 analyte

Query: Find the recorded koff belonging to HC 1251_A06 (g)/LC 1275_C10 (g) (antibody, human IgG1, kappa, V domains shown, IgG format) VH: QVQLVESGGGVVQPGRSLRLSCAASGFDFSSYGMHWVRQAPGKGLEWVAVIWDDGSDRYYADSVKGRFTISRDNSKNTLYLQMNSLRAEDTAVYYCARGGTRVLGAIHGTDVWGQGTTVTVSS VL: DIQMTQSPSSVSASVGDRVTITCRASQGVSSWLAWYQQKPGKAPKLLIYSARYLQSGVPSRFSGSGSGTDFTLTISSLQPEDFATYYCQQYNLYPLTFGGGTKVEIKR and report it.
Response: 0.000148 s⁻¹

Query: Now consider HC 1251_A06 (g)/LC 1337_A07 (g) (antibody, human IgG1, kappa, V domains shown, IgG format) VH: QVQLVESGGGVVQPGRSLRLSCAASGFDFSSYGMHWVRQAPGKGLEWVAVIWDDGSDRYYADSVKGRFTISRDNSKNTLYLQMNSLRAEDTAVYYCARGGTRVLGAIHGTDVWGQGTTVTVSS VL: DIQMTQSPSSVSASVGDRVTITCRASQGISSWVAWYQQKPGKAPKLLIYGASRLQSGVPSRFSGSGSGTDFTLTISSLQPEDFATYYCQQYHTYPLTFGGGTKVEIKR and answer again.
Response: 7.1e-05 s⁻¹
